system: HOP-62 NSCLC; assay: NCI tumour cell line growth inhibition, 48 h
Documented GI50 across a set of compounds
Measurement name: GI50

- Smiles record: "O=C(Nc1cc(Cl)ccc1O)c1ccccc1Nc1ccnc(C(F)(F)F)c1"
  Measurement name: "GI50"
  Measured: "2.16 µM"
- Smiles record: "CNC(=O)c1c(F)cccc1Nc1nc(Nc2cc3c(cc2OC)CCN3C(=O)CN(C)C)nc2[nH]ccc12"
  Measurement name: "GI50"
  Measured: "5.5 µM"
- Smiles record: "CC(=O)/C(Br)=C/c1ccc(Br)o1"
  Measurement name: "GI50"
  Measured: "24.6 µM"
- Smiles record: "Cn1c(=O)c(Oc2ccc(F)cc2F)cc2cnc(N[C@@H]3CCOC3)nc21"
  Measurement name: "GI50"
  Measured: "> 25 µM"
- Smiles record: "COc1ccc(-c2cn(-c3ccc(OC)c(OC)c3)c(=O)[nH]2)cc1"
  Measurement name: "GI50"
  Measured: "> 100 µM"

====

system: OVCAR-5 ovarian; experiment: NCI tumour cell line growth inhibition, 48 h
Measurement name: TGI

- Compound: "COc1ccc2c(c1)CCc1cc(OC)ccc1/[N+]([O-])=[N+]\\2[O-]"
  Measured: "52.7 µM"
- Compound: "COC(=O)CN1C(=O)C2(C(=O)OC)OC1(c1ccc([N+](=O)[O-])cc1)C1C(=O)N(c3ccccc3)C(=O)C12 (centres undefined)"
  Measured: "> 100 µM"
- Compound: "CCc1cc2c(O)c(c1)Cc1cc(CC)cc(c1O)Cc1cc(CC)cc(c1O)Cc1cc(CC)cc(c1O)Cc1cc(CC)cc(c1O)Cc1cc(CC)cc(c1O)Cc1cc(CC)cc(c1O)C2"
  Measured: "> 100 µM"
- Compound: "CCN1C(=O)N(CC)C2C1NN=c1s/c(=C3\\C(=O)N(C4CCCC4)c4ccccc43)c(=O)n12 (centres undefined)"
  Measured: "> 100 µM"
- Compound: "CC(C)(C)[C@H]1CO[C@]2(c3ccccc3)[C@@H]3C[C@@H]3C(=O)N12"
  Measured: "> 100 µM"
- Compound: "O=C(Nc1cc(Cl)ccc1O)c1cccc(Nc2ccnc(C(F)(F)F)c2)c1"
  Measured: "38.5 µM"
- Compound: "CCNC1=C(NC(=O)c2ccccc2)C(=O)c2ccccc2C1=O"
  Measured: "> 100 µM"
- Compound: "O=C1C=C(OCC=C(C(F)(F)F)C(F)(F)F)c2ccccc2C1=O"
  Measured: "5.87 µM"
- Compound: "O=C1NC2(CCCCC2)C(=O)N1CCN(CCCl)CCCl"
  Measured: "> 250 µM"

====

test system: CAKI-1 renal; test: NCI tumour cell line growth inhibition, 48 h

- Molecule: "COc1cc2c(oc(=O)c3cc4cc([Si](C)(C)C)oc4c(OC)c32)c2cccc(O)c12"
  TGI: "> 100 µM"
- Molecule: "COc1ccc2c(O)c(/C=C3\\N=Nc4ncccc43)oc2c1C[C@@H]1CCNC[C@H]1F"
  TGI: "6.47 µM"
- Molecule: "O=S(=O)(O)c1ccc2c(N=Nc3ccc(S(=O)(=O)O)c4ccccc34)c(O)c(S(=O)(=O)O)cc2c1"
  TGI: "> 100 µM"
- Molecule: "COc1ccc(/C=C/C(=O)c2c(-c3ccccc3)nn(C)c(=O)c2N2CCOCC2)cc1"
  TGI: "> 100 µM"
- Molecule: "CCOC(=N)CC(=O)Nc1ccccc1"
  TGI: "> 100 µM"
- Molecule: "CCOC(=O)CCC(NC(=O)c1ccc(Oc2nc3c(N)cc(C(F)(F)F)cc3nc2-c2ccccc2)cc1)C(=O)OCC (centres undefined)"
  TGI: "8.91 µM"
- Molecule: "COc1ccc(C2C(C#N)=C(N)Oc3c2sc2c(Br)cccc32)cc1 (centres undefined)"
  TGI: "18.2 µM"
- Molecule: "COc1ccc(S(=O)(=O)Nc2c(/C=C\\c3cc(OC)c(OC)c(OC)c3)ccc(OC)c2O)cc1"
  TGI: "79.8 µM"
- Molecule: "Cc1cn(Cc2cccc(C3=NCCCN3)c2)c(=O)n(Cc2cccc(C3=NCCCN3)c2)c1=O"
  TGI: "> 100 µM"

====

tested on: IGROV1 ovarian; assay: NCI tumour cell line growth inhibition, 48 h; in the data active = GI50 below about 0.43 µM; inactive = the rest
Classes used: t = active, f = inactive

- Compound: "CC1=C(C(=O)Nc2ccc(F)c(Cl)c2)C(c2cccc(Oc3ccccc3)c2)NC(=S)N1 (centres undefined)"
  Assigned category: "f"
- Compound: "CCOc1ccc(C(C[N+](=O)[O-])Sc2ccccc2N)cc1 (centres undefined)"
  Assigned category: "f"
- Compound: "OC1CCCC2CCC[N-]C12.OC1CCCC2CCC[N-]C12.[O]=[V][OH] (centres undefined)"
  Assigned category: "f"
- Compound: "COc1cc2ncnc(Nc3ccc(Oc4ccnc(C)c4)c(C)c3)c2cc1NC(=O)CC1CCSS1 (centres undefined)"
  Assigned category: "f"
- Compound: "COc1ccc(C(=O)c2cc3c(N)c(C(=O)Nc4cccc(Br)c4C)sc3nc2C)cc1"
  Assigned category: "t"
- Compound: "Clc1cccc(CNc2c3ccccc3nc3ccccc23)c1"
  Assigned category: "f"
- Compound: "CN(C)Cc1ccc(NC(=O)c2cncc(C#Cc3cnc(N)c4ncccc34)c2)cc1F"
  Assigned category: "f"
- Compound: "[N-]=[N+]=NCCCn1c2c(c3ccc([N+](=O)[O-])cc3c1=O)C(=O)c1cc(-c3ccccc3)ccc1-2"
  Assigned category: "f"
- Compound: "C=C1C(=O)O[C@H]2[C@H]1CC/C(COC(=O)/C=C\\C(=O)NCc1ccc(Cn3c(=O)sn(CCI)c3=O)cc1)=C\\CC[C@@]1(C)O[C@@H]21"
  Assigned category: "f"
- Compound: "CCC(=O)N1C/C(=C/c2ccc(Br)cc2)C(=O)/C(=C/c2ccc(Br)cc2)C1"
  Assigned category: "f"
- Compound: "Oc1[nH]c2ccccc2c1/C=c1/ccc2c(c1)N=C(c1ccc(C(F)(F)F)cc1)N=2"
  Assigned category: "f"
- Compound: "CCC(C)C1=C(O)[N+]2([O-])Oc3ccc(C4=C(O)C(=O)C(c5ccc(O)cc5)=C(O)C4=O)cc3OC2(C(C)CC)C(=O)N1O (centres undefined)"
  Assigned category: "f"
- Compound: "Cn1c(=O)c(Oc2ccc(F)cc2F)cc2cnc(N[C@@H]3CCOC3)nc21"
  Assigned category: "f"
- Compound: "C[N+](C)(C)c1cc[c]([Sn]([c]2ccc([N+](C)(C)C)cc2)([c]2ccc([N+](C)(C)C)cc2)[c]2ccc([N+](C)(C)C)cc2)cc1"
  Assigned category: "f"
- Compound: "COc1cc(-c2nc3ccccc3o2)cc(CN2CCCCC2)c1O"
  Assigned category: "f"
- Compound: "Cc1ccc(Cl)c(NS(=O)(=O)c2ccc(-c3cnc(C4CC4)o3)cc2)c1"
  Assigned category: "t"
- Compound: "CNC(=O)c1c(F)cccc1Nc1nc(Nc2cc3c(cc2OC)CCN3C(=O)CN(C)C)nc2[nH]ccc12"
  Assigned category: "f"
- Compound: "O=C1Nc2ccccc2/C1=C\\c1nc(-c2ccccc2F)n2ccccc12"
  Assigned category: "f"
- Compound: "CS(=O)(=O)c1cccc(Nc2ncc3cc(-c4ccccc4Cl)ccc3n2)c1"
  Assigned category: "f"

====

tested on: NCI-H522 lung; test: NCI tumour cell line growth inhibition, 48 h
Documented log10 of TGI across a set of compounds
Measurement name: log10 of TGI (log10 of the value in µM)

- Compound: "COc1ccccc1[As]=[As]c1ccccc1OC (stereo not drawn)"
  log10 of TGI: -1.42
- Compound: "c1ccc2c(c1)c1c3c(c4c(n32)=NCCN4)CCC1"
  log10 of TGI: 1.79
- Compound: "Cc1ccc(S(=O)(=O)N/N=C2\\CCCCCCCCCCC2CN(C)C)cc1 (stereo not drawn)"
  log10 of TGI: 1.44
- Compound: "CN(C)CCCNC(=O)c1cc(NS(=O)(=O)c2ccc3c(c2)C(=O)c2ccccc2C3=O)cn1C"
  log10 of TGI: 1.72
- Compound: "Cc1ccc(Cl)c(NS(=O)(=O)c2ccc(-c3cnc(C4CC4)o3)cc2)c1"
  log10 of TGI: 1.31
- Compound: "CCCCCCCCCCCCN=C(N)c1ccc(N2CCN(c3ccc(C(N)=NCCCCCCCCCCCC)cc3)CC2)cc1"
  log10 of TGI: 1.49
- Compound: "CCN(CC)C(=S)SCC(=O)Nc1nc2c(s1)CCCC2"
  log10 of TGI: 1.81
- Compound: "CCOC(=O)CCC(NC(=O)c1ccc(Oc2nc3c(N)cc(C(F)(F)F)cc3nc2-c2ccccc2)cc1)C(=O)OCC (stereo not drawn)"
  log10 of TGI: 1.66
- Compound: "CC(=O)c1ccccc1NC(=O)C(=O)C(C(=O)c1ccccc1-c1ccccc1)C1OC(=O)c2ccccc21 (stereo not drawn)"
  log10 of TGI: 1.49
- Compound: "COC1C=COC2(C)Oc3c(C)c(O)c4c(O)c(c(C5SCCS5)c(O)c4c3C2=O)NC(=O)/C(C)=C\\C=CC(C)C(O)C(C)C(O)C(C)C(OC(C)=O)C1C (stereo not drawn)"
  log10 of TGI: 1.38
- Compound: "N=C(N)c1ccc(-c2ccc(-c3ccc4ccccc4c3)s2)s1"
  log10 of TGI: 0.68
- Compound: "C=C1C(=O)O[C@H]2[C@H]1CC/C(COC(=O)/C=C\\C(=O)NCc1ccc(Cn3c(=O)sn(CCI)c3=O)cc1)=C\\CC[C@@]1(C)O[C@@H]21"
  log10 of TGI: 0.47
- Compound: "Cc1c2ccncc2c(C)c2c1sc1ccccc12"
  log10 of TGI: 1.36
- Compound: "COc1ccc(C2C(C#N)=C(N)Oc3c2sc2c(Br)cccc32)cc1 (stereo not drawn)"
  log10 of TGI: 0.80
- Compound: "CN(C)Cc1ccc(NC(=O)c2cncc(C#Cc3cnc(N)c4ncccc34)c2)cc1F"
  log10 of TGI: 1.73
- Compound: "CCN1C(=O)N(CC)C2C1NN=c1s/c(=C3\\C(=O)N(C4CCCC4)c4ccccc43)c(=O)n12 (stereo not drawn)"
  log10 of TGI: 0.75
- Compound: "N#Cc1nc(C#N)c(Sc2ccccc2)c(Sc2ccccc2)c1Sc1ccccc1"
  log10 of TGI: -0.19
- Compound: "Oc1ccc(C(O)(c2ccccc2)c2ccccc2)c2ccccc12"
  log10 of TGI: 0.86
- Compound: "C=CCNC1=C2C[C@@H](C)C[C@H](OC)[C@H](O)[C@@H](C)/C=C(\\C)[C@H](OC(N)=O)[C@@H](OC)/C=C\\C=C(/C)C(=O)NC(=CC1=O)C2=O"
  log10 of TGI: 1.35
- Compound: "O=C(CC1C(=O)Nc2ccccc2S1(=O)=O)Nc1ccc(Cl)cc1 (stereo not drawn)"
  log10 of TGI: 1.56
- Compound: "O=c1oc2ccccc2c(O)c1C(c1ccc(-c2ccccc2)cc1)c1c(O)c2ccccc2oc1=O"
  log10 of TGI: 1.82
